# credit: PubChem BioAssay (NCI)

Kindly supply the reported TGI values for the records listed here.
- Tested on: TK-10 renal
- Assay protocol: NCI tumour cell line growth inhibition, 48 h

Return TGI for the following compound: Cn1c2ccccc2c2c3c(c4c5ccccc5n(C5OC(CO)C(O)C(O)C5O)c4c21)C(=O)OC3=O (stereo not given)
> 100 µM

Return TGI for the following compound: COc1cc2c(cc1O)c(=O)n(CCN(C)C)c1c3cc4c(cc3ncc21)OCO4
0.524 µM

Return TGI for the following compound: CSc1ccc2c(cc1=O)C(NC(=O)c1ccccc1)CCc1cc(O)c(O)c(O)c1-2 (stereo not given)
> 100 µM

Return TGI for the following compound: C#CC(C)(C)OCCCCOc1cc(O)c2c(=O)c3ccccc3n(C)c2c1
> 100 µM

Return TGI for the following compound: [N-]=[N+]=Nc1c(-c2ccccc2)c(=O)n(-c2ccccc2)c2ccccc12
> 100 µM

Return TGI for the following compound: COc1ccccc1NC(=O)CC(=O)n1nc(C)c(N=Nc2ccccc2Cl)c1C
> 100 µM

Return TGI for the following compound: Cc1cc2c(=O)c(C)n[nH]c2c(C#N)c1C
> 100 µM

Return TGI for the following compound: O=C(O)/C=C/c1ccc(OS(=O)(=O)O)cc1
> 100 µM

Return TGI for the following compound: Cc1ccc2[nH]c(C(=O)NN3C(=O)C(C)SC34CCC(C)CC4)c(-c3ccccc3)c2c1 (stereo not given)
29.6 µM

Return TGI for the following compound: [C-]#[N+]C(=C\c1ccc(O)cc1)/C(=C/c1ccc(O)cc1)[N+]#[C-]
> 100 µM
